Recorded values, source ChEMBL document CHEMBL3885861.

# Species: Rattus norvegicus
# assay.text: Open TG-GATES - Regimen: Single
# Assay type: toxicity, organism-based, Sprague-Dawley
# Parameters: regimen Single, gender Male, age 6 weeks
# test.conditions: in vivo, po, 300 mg/kg, 9 h, tissue Blood, route gavage, dose level Middle
I'd be grateful if you could share measured WBC for these entries.

The cases that follow already have their WBC on record.
Clc1ccccc1CN1CCc2sccc2C1: 64 x10_2/uL
CCc1cc(C(N)=S)ccn1 [ETHIONAMIDE]: 69.4 x10_2/uL

Respectfully, I request WBC for each entry included below.
1. O=C(O)c1cn(C2CC2)c2cc(N3CCNCC3)c(F)cc2c1=O
2. O=C(O)c1cc(/N=N/c2ccc(S(=O)(=O)Nc3ccccn3)cc2)ccc1O

Reply |
105.6 x10_2/uL
81.5 x10_2/uL

###

# Species: Rattus norvegicus
# assay.text: Open TG-GATES - Regimen: Single
# Assay type: toxicity, organism-based, Sprague-Dawley
# Parameters: regimen Single, gender Male, age 6 weeks
# test.conditions: in vivo, po, 1000 mg/kg, 6 h, tissue Blood, route gavage, dose level High
property.measured: Hb (g/dL)
One number for each entry, in g/dL.

Clc1ccccc1CN1CCc2sccc2C1 [TICLOPIDINE]: 13.5
O=C(O)c1cc(/N=N/c2ccc(S(=O)(=O)Nc3ccccn3)cc2)ccc1O [SULFASALAZINE]: 13.1
CCc1cc(C(N)=S)ccn1 [ETHIONAMIDE]: 14.4
O=C(O)c1cn(C2CC2)c2cc(N3CCNCC3)c(F)cc2c1=O [CIPROFLOXACIN]: 12.9

For the next question, use this molecule.
Ask | Give its Hb value. Item: C[C@H](CS)C(=O)N1CCC[C@H]1C(=O)O [CAPTOPRIL]
Reply | 13.4

###

I'd be grateful if you could share measured KIDNEY_R for these entries.
# Species on record: Rattus norvegicus
# assay.text: Open TG-GATES - Regimen: Single
# Assay type: toxicity, organism-based, Sprague-Dawley
# Design: regimen Single, gender Male, age 6 weeks
# test.conditions: in vivo, po, 300 mg/kg, 9 h, tissue Kidney, route gavage, dose level Middle
Please answer using a numeric value trailed by its unit.

CCc1cc(C(N)=S)ccn1 [ETHIONAMIDE]: 1 g
O=C(O)c1cn(C2CC2)c2cc(N3CCNCC3)c(F)cc2c1=O: 0.8 g
C[C@H](CS)C(=O)N1CCC[C@H]1C(=O)O: 1 g

Respectfully, I request KIDNEY_R for each entry included below.
1. O=C(O)c1cc(/N=N/c2ccc(S(=O)(=O)Nc3ccccn3)cc2)ccc1O
2. Clc1ccccc1CN1CCc2sccc2C1

Reply |
["0.9 g", "1 g"]

###

# Species: Rattus norvegicus
# assay.text: Open TG-GATES - Regimen: Single
# Format: toxicity, organism-based, Sprague-Dawley
# Design: regimen Single, gender Male, age 6 weeks
# test.conditions: in vivo, po, 300 mg/kg, 24 h, route gavage, dose level Middle
I'd be grateful if you could share measured TERMINAL_BW for these entries.
Give bare numbers, in g.

The cases that follow already have their TERMINAL_BW on record.
O=C(O)c1cn(C2CC2)c2cc(N3CCNCC3)c(F)cc2c1=O [CIPROFLOXACIN]: 194.3
Clc1ccccc1CN1CCc2sccc2C1 [TICLOPIDINE]: 212.9
CCc1cc(C(N)=S)ccn1 [ETHIONAMIDE]: 231.6
C[C@H](CS)C(=O)N1CCC[C@H]1C(=O)O [CAPTOPRIL]: 235.1

For the next question, use this compound.
Ask | Give its TERMINAL_BW value. Item: O=C(O)c1cc(/N=N/c2ccc(S(=O)(=O)Nc3ccccn3)cc2)ccc1O [SULFASALAZINE]
Reply | 224.2

###

# Species on record: Rattus norvegicus
# assay.text: Open TG-GATES - Regimen: Daily Repeat
# Format: toxicity, organism-based, Sprague-Dawley
# Design: regimen Daily Repeat, gender Male, age 6 weeks
# test.conditions: in vivo, po, 0 mg/kg, […], tissue Blood, route gavage, dose level Control, time 28 day
property.measured: APTT (s)
Answers are plain numbers, in s.

O=C(O)c1cn(C2CC2)c2cc(N3CCNCC3)c(F)cc2c1=O [CIPROFLOXACIN]: 17.2

Respectfully, I request APTT for each entry included below.
1. CSc1ccc2c(c1)N(CCC1CCCCN1C)c1ccccc1S2 (centres undefined) [THIORIDAZINE]
2. O=C(O)c1cc(/N=N/c2ccc(S(=O)(=O)Nc3ccccn3)cc2)ccc1O [SULFASALAZINE]

Reply |
1. 18.1
2. 20.6

Respectfully, I request APTT for each entry included below.
1. CCCC(CCC)C(=O)O [VALPROIC ACID]
2. COc1ccc(Cc2nccc3cc(OC)c(OC)cc23)cc1OC [PAPAVERINE]
3. Clc1ccccc1CN1CCc2sccc2C1 [TICLOPIDINE]

Reply |
19.4
24.6
18.1

Respectfully, I request APTT for each entry included below.
1. C[C@H](CS)C(=O)N1CCC[C@H]1C(=O)O [CAPTOPRIL]
2. NC(=O)N/N=C/c1ccc([N+](=O)[O-])o1 [NITROFURAZONE]
3. NC(=O)N1c2ccccc2C=Cc2ccccc21 [CARBAMAZEPINE]
4. Cn1c(=O)c2[nH]cnc2n(C)c1=O.O [THEOPHYLLINE]
5. COc1ccc2c(c1)c(CC(=O)O)c(C)n2C(=O)c1ccc(Cl)cc1 [INDOMETHACIN]
6. CCc1cc(C(N)=S)ccn1 [ETHIONAMIDE]
7. CC(=O)Oc1ccccc1C(=O)O [ASPIRIN]

Reply |
[16.7, 16.2, 20.4, 24.9, 15.3, 18.6, 21.5]

Ask | Give its APTT value. Item: CN(C)CCC=C1c2ccccc2CCc2ccccc21 [AMITRIPTYLINE]
Reply | 18.5

###

# Species on record: Rattus norvegicus
# assay.text: Open TG-GATES - Regimen: Single
# Type: toxicity, organism-based, Sprague-Dawley
# Design: regimen Single, gender Male, age 6 weeks
# test.conditions: in vivo, po, 0 mg/kg, 24 h, tissue Blood, route gavage, dose level Control
property.measured: MCH (pg)
One number for each entry, in pg.

Respectfully, I request MCH for each entry included below.
1. C[C@H](CS)C(=O)N1CCC[C@H]1C(=O)O [CAPTOPRIL]
2. COc1cc2c(c3oc(=O)c4c(c13)CCC4=O)[C@@H]1C=CO[C@@H]1O2 [AFLATOXIN]
3. CC(=O)Oc1ccccc1C(=O)O [ASPIRIN]

Reply |
1: 21.7; 2: 20.7; 3: 22.6

###

# Species: Rattus norvegicus
# assay.text: Open TG-GATES - Regimen: Single
# Format: toxicity, organism-based, Sprague-Dawley
# Set-up: regimen Single, gender Male, age 6 weeks
# test.conditions: in vivo, po, 1000 mg/kg, 3 h, tissue Plasma, route gavage, dose level High
property.measured: gamma-GTP (IU/L)
Numbers only, in IU/L.

The cases that follow already have their gamma-GTP on record.
C[C@H](CS)C(=O)N1CCC[C@H]1C(=O)O [CAPTOPRIL]: 1.4
Clc1ccccc1CN1CCc2sccc2C1 [TICLOPIDINE]: 0.8
O=C(O)c1cn(C2CC2)c2cc(N3CCNCC3)c(F)cc2c1=O [CIPROFLOXACIN]: 1.4
O=C(O)c1cc(/N=N/c2ccc(S(=O)(=O)Nc3ccccn3)cc2)ccc1O [SULFASALAZINE]: 1

Ask | Give its gamma-GTP value. Item: CCc1cc(C(N)=S)ccn1 [ETHIONAMIDE]
Reply | 1.2

###

# Species on record: Rattus norvegicus
# assay.text: Open TG-GATES - Regimen: Single
# Type: toxicity, organism-based, Sprague-Dawley
# Design: regimen Single, gender Male, age 6 weeks
# test.conditions: in vivo, po, 1000 mg/kg, 6 h, tissue Blood, route gavage, dose level High
I'd be grateful if you could share measured Eos for these entries.
Numbers only, in %.

Respectfully, I request Eos for each entry included below.
1. O=C(O)c1cc(/N=N/c2ccc(S(=O)(=O)Nc3ccccn3)cc2)ccc1O
2. C[C@H](CS)C(=O)N1CCC[C@H]1C(=O)O
3. Clc1ccccc1CN1CCc2sccc2C1
4. O=C(O)c1cn(C2CC2)c2cc(N3CCNCC3)c(F)cc2c1=O

Reply |
1: 0.8; 2: 1; 3: 1; 4: 0.8

Ask | Give its Eos value. Item: CCc1cc(C(N)=S)ccn1 [ETHIONAMIDE]
Reply | 0.8

###

# Species on record: Rattus norvegicus
# assay.text: Open TG-GATES - Regimen: Single
# Format: toxicity, organism-based, Sprague-Dawley
# Design: regimen Single, gender Male, age 6 weeks
# test.conditions: in vivo, po, 300 mg/kg, 24 h, tissue Blood, route gavage, dose level Middle
I'd be grateful if you could share measured Lym for these entries.
One number for each entry, in %.

The cases that follow already have their Lym on record.
O=C(O)c1cn(C2CC2)c2cc(N3CCNCC3)c(F)cc2c1=O [CIPROFLOXACIN]: 77.2
O=C(O)c1cc(/N=N/c2ccc(S(=O)(=O)Nc3ccccn3)cc2)ccc1O [SULFASALAZINE]: 75
CCc1cc(C(N)=S)ccn1 [ETHIONAMIDE]: 66.2
C[C@H](CS)C(=O)N1CCC[C@H]1C(=O)O [CAPTOPRIL]: 83.4

For the next question, use this compound.
Ask | Give its Lym value. Item: Clc1ccccc1CN1CCc2sccc2C1 [TICLOPIDINE]
Reply | 80.8
